Assay: log P by HPLC on reversed-phase column (C 18), EEC Directive 79/831 Annex V.A8
Format: physicochemical
Conditions: reversed-phase HPLC column (C 18), pH 7.8, LC-MS neutral range, pH 7.8, ammonium hydrogencarbonate/acetonitrile, 55° C.; read-out: log P (neutral)
Procedure: Temperature: 55° C. […] Called log P (HCOOH) in the table. […] Called log P (neutral) in the table.
testReadout: chromatographic logP
In your answer, state the number alone without any accompanying words.

[ask] chromatographic logP lookup needed for N#Cc1ccc(CNC(=O)c2cc(-c3ccc(OC(F)(F)F)cc3)cc(NC(=O)C3CC3)n2)cc1 , thanks.
[reply] 3.76

[ask] Another: N#Cc1cc(-c2ccc(OC(F)(F)F)cc2)cc(NC(=O)C2CC2)n1
[reply] 3.89

[ask] Another: O=C(NC(=O)C1CC1)c1cc(-c2ccc(C(F)(F)C(F)(F)F)c(F)c2)cc(NC(=O)C2CC2)n1
[reply] 4.53

[ask] Another: FC(F)(F)Oc1ccc(-c2cc(Cl)nc(Cl)c2)cc1
[reply] 4.62

[ask] Another: NNC(=O)c1cc(-c2ccc(OC(F)(F)F)cc2)cc(NC(=O)C2CC2)n1
[reply] 2.55

[ask] Another: Fc1cc(-c2cc(Cl)nc(Cl)c2)ccc1C(F)(F)C(F)(F)F
[reply] 4.97

[ask] Another: CN(C(=O)c1cc(-c2ccc(C(F)(F)F)cc2)cc(NC(=O)C2CC2)n1)C1CC1
[reply] 3.21

[ask] Another: N#Cc1ccc(CNC(=O)c2cc(-c3ccc(C(F)(F)F)cn3)cc(NC(=O)C3CC3)n2)cc1
[reply] 3.22

[ask] Another: O=C(O)c1cc(-c2ccc(OC(F)(F)F)cc2)cc(Cl)n1
[reply] 1.17

[ask] Another: NC(=O)c1cc(-c2ccc(C(F)(F)C(F)(F)F)c(F)c2)cc(NC(=O)C2CC2)n1
[reply] 3.17

[ask] Another: CNc1cc(-c2ccc(OC(F)(F)F)cc2)cc(C(=O)NCc2ccc(C#N)cc2)n1
[reply] 3.63

[ask] Another: N#Cc1ccc(CNC(=N)c2cc(-c3ccc(OC(F)(F)F)cc3)cc(NC(=O)C3CC3)n2)cc1
[reply] 4.24

[ask] Another: N#Cc1ccc(/C=N/NC(=O)c2cc(-c3ccc(OC(F)(F)F)cc3)cc(NC(=O)C3CC3)n2)cc1
[reply] 3.83

[ask] Another: O=C(Nc1cc(-c2ccc(C(F)(F)C(F)(F)F)c(F)c2)cc(Cl)n1)C1CC1
[reply] 4.64

[ask] Another: N#Cc1ccc(CNC(=O)c2cc(-c3ccc(Cl)cc3)cc(N)n2)cc1
[reply] 2.82

====

Experiment: log P by HPLC on reversed-phase column (C 18), EEC Directive 79/831 Annex V.A8
Assay type: physicochemical
Conditions: log P (HCOOH), acidic range at pH 2.7, 0.1% aqueous formic acid and acetonitrile; HPLC on reversed-phase column (C 18), 55° C.
Experimental: Temperature: 55° C. […] Called log P (HCOOH) in the table. […] Called log P (neutral) in the table.
Give measured LOGP_HCOOH for each item. Keep answers brief.
In your answer, state the number alone without any accompanying words.

[ask] LOGP_HCOOH lookup needed for CC(NC(=O)c1cc(-c2ccc(OC(F)(F)F)cc2)cc(NC(=O)C2CC2)n1)c1ccc([N+](=O)[O-])cc1 (stereo not drawn) , thanks.
[reply] 4.28

[ask] Another: N#Cc1ccc(CNC(=O)c2cc(-c3ccc(C(F)(F)F)cn3)cc(NC(=O)C3CC3)n2)cc1
[reply] 3.25

[ask] Another: NC(=S)C1(NC(=O)c2cc(-c3ccc(OC(F)(F)F)cc3)cc(NC(=O)C3CC3)n2)CC1
[reply] 3.25

[ask] Another: C#CC(C)NC(=O)c1cc(-c2ccc(OC(F)(F)F)cc2)cc(NC(=O)C2CC2)n1 (stereo not drawn)
[reply] 3.84

[ask] Another: N#Cc1ccc(CNC(=O)c2cc(-c3cc(F)c(OC(F)(F)F)c(F)c3)cc(NC(=O)C3CC3)n2)cc1
[reply] 4.14

[ask] Another: N#CCCCCCNC(=O)c1cc(-c2ccc(OC(F)(F)F)cc2)cc(NC(=O)C2CC2)n1
[reply] 3.59

[ask] Another: COC(=O)N(Cc1ccc(C#N)cc1)C(=O)c1cc(-c2ccc(OC(F)(F)F)cc2)cc(N(C(=O)OC)C(=O)C2CC2)n1
[reply] 4.30

[ask] Another: N#Cc1ccc(CNC(=O)c2cc(-c3ccc(C(F)(F)C(F)(F)F)cc3)cc(NC(=O)C3CC3)n2)cc1
[reply] 4.24

[ask] Another: N#Cc1ccc(CNC(=O)c2cc(-c3ccc(OC(F)(F)F)cc3F)cc(NC(=O)C3CC3)n2)cc1
[reply] 3.87

[ask] Another: O=C(NC1CC1(F)F)c1cc(-c2ccc(OC(F)(F)F)cc2)cc(NC(=O)C2CC2)n1 (stereo not drawn)
[reply] 3.85

[ask] Another: N#Cc1ccc(CNC(=O)c2cc(-c3ccc(OC(F)(F)F)cc3)cc(NC(=O)C3(C#N)CC3)n2)cc1
[reply] 4.04

[ask] Another: N#CC1(NC(=O)c2cc(-c3ccc(OC(F)(F)F)cc3)cc(NC(=O)C3CC3)n2)CCOCC1
[reply] 3.58

[ask] Another: COC(=O)C(C)NC(=O)c1cc(-c2ccc(OC(F)(F)F)cc2)cc(NC(=O)C2CC2)n1 (stereo not drawn)
[reply] 3.68

[ask] Another: O=C(NC1CCC(C(F)(F)F)CC1)c1cc(-c2ccc(OC(F)(F)F)cc2)cc(NC(=O)C2CC2)n1 (stereo not drawn)
[reply] 4.77

[ask] Another: N#Cc1ccc(CNC(=O)c2cc(-c3ccc(SC4CC4)cc3)cc(NC(=O)C3CC3)n2)cc1
[reply] 4.07

====

Assay: log P by HPLC on reversed-phase column (C 18), EEC Directive 79/831 Annex V.A8
Format: physicochemical
Settings: log P (HCOOH), acidic range at pH 2.7, 0.1% aqueous formic acid and acetonitrile; HPLC on reversed-phase column (C 18), 55° C.
Is LOGP_HCOOH at least 4? Then t. If not, f.

[ask] Form field: LOGP_HCOOH at least 4? Entry: CNC(=O)c1cc(-c2ccc(OC(F)(F)F)cc2)cc(NC(=O)C2CC2)n1 [Example I-127]
[reply] f

[ask] Another: N#Cc1ccc(CNC(=O)c2cc(-c3cccc(OC(F)(F)F)c3)cc(NC(=O)C3CC3)n2)cc1 [Example I-208]
[reply] f

[ask] Another: N#Cc1ccc(CNC(=O)c2cc(-c3ccc(CC(F)(F)F)cc3)cc(NC(=O)C3CC3)n2)cc1 [Example I-144]
[reply] f

[ask] Another: O=C(NC1(C2CC2)CC1)c1cc(-c2ccc(OC(F)(F)F)cc2)cc(NC(=O)C2CC2)n1 [Example I-184]
[reply] t

[ask] Another: N#Cc1ccc(CNC(=O)c2cc(-c3ccc(OC(F)(F)C(F)Cl)cc3)cc(NC(=O)C3CC3)n2)cc1 (stereo not drawn) [Example I-194]
[reply] f

[ask] Another: CON(C)C(=O)c1cc(-c2ccc(OC(F)(F)F)cc2)cc(NC(=O)C2CC2)n1 [Example I-183]
[reply] f

[ask] Another: CC(F)(F)c1ccc(-c2cc(NC(=O)C3CC3)nc(C(=O)NCc3ccc(C#N)cc3)c2)cc1 [Example I-192]
[reply] f

[ask] Another: CCC(C#N)(CC)NC(=O)c1cc(-c2ccc(OC(F)(F)F)cc2)cc(NC(=O)C2CC2)n1 [Example I-139]
[reply] t

[ask] Another: CC(C#N)NC(=O)c1cc(-c2ccc(OC(F)(F)F)cc2)cc(NC(=O)C2CC2)n1 (stereo not drawn) [Example I-115]
[reply] f

[ask] Another: N#Cc1ccc(CNC(=O)c2cc(-c3ccc(C(F)(F)F)c(F)c3)cc(NC(=O)C3CC3)n2)cc1 [Example I-224]
[reply] f

[ask] Another: O=C(NCc1ccc(F)c(C(F)(F)F)c1)c1cc(-c2ccc(OC(F)(F)F)cc2)cc(NC(=O)C2CC2)n1 [Example I-226]
[reply] t

[ask] Another: N#Cc1ccc(CNC(=O)c2cc(-c3ccc(OC(F)(F)F)cc3)cc(NC(=O)Cc3ccc([N+](=O)[O-])cc3)n2)cc1 [Example I-211]
[reply] t

[ask] Another: N#Cc1ccc(CNC(=O)c2cc(-c3ccc(OC(F)(F)F)cc3)cc(NC(=O)c3cnco3)n2)cc1 [Example I-212]
[reply] f

====

Experiment: log P by HPLC on reversed-phase column (C 18), EEC Directive 79/831 Annex V.A8
Type: physicochemical
Conditions: log P (HCOOH), acidic range pH 2.7, 0.1% aqueous formic acid and acetonitrile; reversed-phase column (C 18), 55° C.
Give measured LOGP_HCOOH for each item. Keep answers brief.
In your answer, state the number alone without any accompanying words.

[ask] LOGP_HCOOH lookup needed for N#Cc1ccc(CNC(=O)c2cc(-c3ccc(OC(F)(F)F)cc3)cc(NC(=O)c3ccc(Cl)nc3)n2)cc1 [Example I-256] , thanks.
[reply] 4.25

[ask] Another: O=C(NCCCc1ccc(C(F)(F)F)cc1)c1cc(-c2ccc(C(F)(F)F)cc2)cc(NC(=O)C2CC2)n1 [Example I-058]
[reply] 4.94

[ask] Another: O=C(NCc1cc(F)c(Cl)cc1Cl)c1cc(-c2ccc(C(F)(F)F)cc2)cc(NC(=O)C2CC2)n1 [Example I-059]
[reply] 5.09

[ask] Another: O=C(Cc1ccc(C(F)(F)F)cc1)Nc1cc(-c2ccc(C(F)(F)F)cc2)cc(C(=O)NC2CC2)n1 [Example I-088]
[reply] 4.37

[ask] Another: CCNC(=O)c1cc(-c2ccc(C(F)(F)F)cc2)cc(NC(=O)C2CC2)n1 [Example I-016]
[reply] 3.30

[ask] Another: N#Cc1ccc(CNC(=O)c2cc(-c3cc(F)c(C(F)(F)C(F)(F)F)cc3Cl)cc(NC(=O)C3CC3)n2)cc1 [Example I-269]
[reply] 4.34

[ask] Another: CC(=O)Nc1cc(-c2ccc(C(F)(F)F)cc2)cc(C(=O)NCc2ccc(C#N)cc2)n1 [Example I-017]
[reply] 3.15

[ask] Another: CCCCNC(=O)c1cc(-c2ccc(C(F)(F)F)cc2)cc(NC(=O)C2CC2)n1 [Example I-037]
[reply] 4.05

[ask] Another: O=C(NC(=O)c1cc(-c2ccc(C(F)(F)C(F)(F)F)c(F)c2)cc(NC(=O)C2CC2)n1)c1ccc([N+](=O)[O-])cc1 [Example I-263]
[reply] 4.57

[ask] Another: N#Cc1ccc(CNC(=O)c2cc(-c3ccc(OC(F)F)cc3)cc(NC(=O)C3CC3)n2)cc1 [Example I-029]
[reply] 3.28

[ask] Another: CC(C)C(=O)Nc1cc(-c2ccc(C(F)(F)F)cc2)cc(C(=O)NCc2ccc(Cl)nc2)n1 [Example I-014]
[reply] 3.88

[ask] Another: N#Cc1ccc(CNC(=O)c2cc(-c3ccc(C(F)(F)C(F)(F)F)c(Cl)c3)cc(NC(=O)C3CC3)n2)cc1 [Example I-273]
[reply] 4.45

[ask] Another: CC(C)C(=O)Nc1cc(-c2ccc(OC(F)(F)F)cc2)cc(C(=O)NCc2ccc(C#N)cc2F)n1 [Example I-081]
[reply] 4.22

[ask] Another: O=C(NC1CC1)c1cc(-c2ccc(C(F)(F)F)cc2)cc(NC(=O)C2CC2)n1 [Example I-013]
[reply] 3.37

[ask] Another: N#Cc1ccc(CNC(=O)c2cc(-c3ccc(C(F)(F)F)cc3)cc(NC(=O)C3CCC3)n2)cc1 [Example I-045]
[reply] 4.14
